- System: MDA-MB-468 breast
- assay-summary: NCI tumour cell line growth inhibition, 48 h; in the data active = GI50 below about 0.43 µM; inactive = the rest
Assign a class; possible classes are T for active, F for inactive

Example entries begin here.
smiles-structure	system-tested	group
COC(=O)CCC1=C(C)C(C)=N/C1=C\c1[nH]c(-c2ccc[nH]2)cc1OC	MDA-MB-468 breast	F
CN(C)c1ccc(N=Nc2ccc(Br)cn2)c(O)c1	MDA-MB-468 breast	F
c1ccc(-c2nc([P+](c3ccccc3)(c3ccccc3)c3ccccc3)c(N3CCOCC3)o2)cc1	MDA-MB-468 breast	T
COc1cccc(-n2ncc3c(N/N=C/c4cccc(F)c4)ncnc32)c1	MDA-MB-468 breast	F

Inquiry: Answer briefly: the call reported for O=c1[nH]c2c3ccncc3cc(-c3cccc(Cl)c3)c2c2cnccc12 in this assay.
Reply text: F

Inquiry: Try the compound Oc1ccc(Cl)cc1-c1cc(-c2ccc(Cl)cc2)n[nH]1
Reply text: F

Inquiry: Try the compound COC(=O)[C@]12CC[C@@H](C(=O)/C=C/c3cccnc3)[C@@H]1[C@H]1CC[C@@H]3[C@@]4(C)C/C(=C/c5cccnc5)C(=O)C(C)(C)[C@@H]4CC[C@@]3(C)[C@]1(C)CC2
Reply text: T

Inquiry: Try the compound O=C(/C=C/c1cccc(Br)c1)c1nc2ccccc2n1Cc1ccc(F)cc1
Reply text: F

----------
- Tested on: MDA-MB-468 breast
- assay-summary: NCI tumour cell line growth inhibition, 48 h
attribute-measured: TGI

Record excerpt, results attached:
smiles-structure	TGI
CO[C@H]1C[C@@H]2CC[C@@H](C)[C@@](O)(O2)C(=O)C(=O)N2CCCC[C@H]2C(=O)O[C@H]([C@H](C)C[C@@H]2CC[C@@H](O)[C@H](OC)C2)CC(=O)[C@H](C)C=C(C)[C@@H](O)[C@@H](OC)C(=O)[C@H](C)C[C@H](C)/C=C/C=C/C=C1C	13.4 µM
C/C(=N\NC(=O)c1ccccc1N)c1ccccc1O	13.8 µM
Cc1cnc(NC2CCOCC2)nc1-n1cnc(C(=O)N[C@H](CN)c2cc(F)cc(Cl)c2)c1	11.8 µM

Inquiry: // lookup TGI for CCOC(=O)C#Cc1c(C(=O)OCC)nnn1Cc1ccc(C(F)(F)F)cc1
Reply text: 4.05 µM

Inquiry: Try the molecule CC(C)CNC(=O)c1ccc(NC(=O)N(CC(C)C)C(=O)c2ccc(N)c(OCCCN)c2)c(OCCCN=C(N)N)c1
Reply text: > 62.5 µM

Inquiry: Try the molecule COc1ccc(-c2cn(-c3cccc(C(=O)/C=C/c4cc(OC)c(OC)c(OC)c4)c3)c(=O)[nH]2)cc1
Reply text: 10.8 µM

Inquiry: Try the molecule O=C(/C=C/c1cccc(Br)c1)c1nc2ccccc2n1Cc1ccc(F)cc1
Reply text: 18.2 µM

Inquiry: Try the molecule COc1cccc(-n2ncc3c(N/N=C/c4cccc(F)c4)ncnc32)c1
Reply text: 13.6 µM

Inquiry: Try the molecule Nc1c(C(=O)c2cccc(-c3ccncc3)c2)cnn1-c1ccc(F)cc1
Reply text: > 25 µM
